# credit: PubChem BioAssay (NCATS)

# assay: BET inhibitor-based combinations targeting novel dependencies in MECOM-rearranged (r) AML: UCSD-AML1 cell line (AID 2202235); note: nearly all actives have a fitted effect of over 40% in size
# conditionDetails: UCSD-AML1 AML cells viability, CellTiter-Glo, 48 h; series mostly up to 46 µM
Results filed as inconclusive are left out. Calls of active or inactive are those of the source. Calls come from the whole dose curve; as a rule, active = well fitted inhibition curve with a large enough effect; inconclusive = small, poorly fitted or top-dose-only effect; inactive = no such curve, though single readings can be large or run the other way.
Your answer must be one of the following: 1 = active, 0 = inactive

// below: answered compounds
| compound | assignedLabel |
| --- | --- |
| N#Cc1ccc(N(Cc2ccc(Br)cc2)n2cnnc2)cc1 | 0 |
| NC1CCCN(c2c(/C=C3\SC(=O)NC3=O)cccc2-c2ccccc2)C1 (configuration not stated) | 1 |
| COc1ccc(-c2oc3c(CC=C(C)C)c(OC4O[C@H](CO)[C@@H](O)[C@H](O)[C@H]4O)cc(O)c3c(=O)c2OC2O[C@@H](C)[C@H](O)[C@@H](O)[C@H]2O)cc1 (some centres not stated) | 0 |

Prompt line: Field: outcome | Entry: COc1cc([C@@H](CC(=O)O)c2ccc(C)c(CN3C[C@@H](C)Oc4ccccc4S3(=O)=O)c2)cc2nnn(C)c12
Response line: 0

Prompt line: What did the test return for C[C@]12CC[C@@H]3c4ccc(O)cc4CC[C@H]3[C@@H]1C[C@@H](O)[C@@H]2O ?
Response line: 0

Prompt line: State the result this test recorded for COc1ncc(-c2ccc3nccc(-c4ccnnc4)c3c2)cc1NS(=O)(=O)c1ccc(F)cc1F .
Response line: 1

Prompt line: For Cc1cnc(Nc2ccc(CN3CCOCC3)cc2)nc1Nc1cccc(S(=O)(=O)NC(C)(C)C)c1 , which call appears in the assay record?
Response line: 1

Prompt line: Per the records of this test, what outcome belongs to C=CC(=O)Nc1cc2c(Nc3ccc(F)c(Cl)c3)ncnc2cc1C#CC(C)(C)N1CCN(C)CC1 ?
Response line: 1

Prompt line: What did the test return for COc1cc2c(Oc3ccc4[nH]c(C)cc4c3F)ccnc2cc1OCC1(N)CC1 ?
Response line: 1

Prompt line: // outcome(item) with item = COCCn1c2c([n+](Cc3cnccn3)c1C)C(=O)c1ccccc1C2=O
Response line: 1

Prompt line: Outcome logged for C[C@H]1CNCCCN1S(=O)(=O)c1cccc2cncc(F)c12 in this assay:
Response line: 0

Prompt line: Kindly provide the recorded test outcome for the following compound: CN1CCN(CCCNc2ncc(Cl)c(-c3cc4c(C(=O)NC5CC5)cccc4s3)n2)CC1
Response line: 0

Prompt line: For this compound, state the assay outcome: NC(CC1c2ccccc2Oc2ccccc21)(C(=O)O)C1CC1C(=O)O (configuration not stated)
Response line: 0

Prompt line: Per the assay record, what outcome was assigned to Cc1cc(/C=c2/sc3nc4ccccc4n3c2=O)c(C)n1-c1ccccc1 ?
Response line: 0

Prompt line: Recorded call for CO[C@H]1/C=C/O[C@@]2(C)Oc3c(C)c(O)c4c(O)c(c5c(nc6cc(C)ccn65)c4c3C2=O)NC(=O)/C(C)=C\C=C\[C@H](C)[C@H](O)[C@@H](C)[C@@H](O)[C@@H](C)[C@H](OC(C)=O)[C@@H]1C ?
Response line: 0

Prompt line: Tell me the recorded outcome of this test for COc1ccc(C2=N[C@H](c3ccc(Cl)cc3)[C@H](c3ccc(Cl)cc3)N2C(=O)N2CCNC(=O)C2)c(OC(C)C)c1 .
Response line: 0

Prompt line: What did this assay record as the result for C=CC(=O)Nc1cccc(Oc2nc(Nc3ccc(N4CCN(C)CC4)cc3)nc3ccsc23)c1 ?
Response line: 1

Prompt line: State the result this test recorded for CS(=O)(=O)c1ccc(-c2cnc(NCc3ccco3)n3cnnc23)cc1 .
Response line: 0

Prompt line: Hi, do you know how O=C(/C=C/c1ccc2ccc(C(F)(F)F)cc2n1)c1ccncc1 came out in this test?
Response line: 1

Prompt line: Just curious, what result did O=c1cc(N2CCOCC2)oc2c(-c3ccc4c(c3)OCCO4)csc12 get here?
Response line: 1

Prompt line: What outcome does the record of this test show for Cc1[nH]c2ccccc2c1CCNCc1ccc(/C=C/C(=O)NO)cc1 ?
Response line: 1

Prompt line: Call for entry C=C1C(=O)O[C@H]2C[C@H](C)C(/C=C/C(C)=O)=CC[C@H]12 :
Response line: 1

Prompt line: Which outcome did this test record for the compound NC[C@@](O)(c1ccc(Cl)cc1)c1ccc(-c2cn[nH]c2)cc1 ?
Response line: 1
